Biological target: CXCR3 (Homo sapiens)
Sequence (P49682 1-368): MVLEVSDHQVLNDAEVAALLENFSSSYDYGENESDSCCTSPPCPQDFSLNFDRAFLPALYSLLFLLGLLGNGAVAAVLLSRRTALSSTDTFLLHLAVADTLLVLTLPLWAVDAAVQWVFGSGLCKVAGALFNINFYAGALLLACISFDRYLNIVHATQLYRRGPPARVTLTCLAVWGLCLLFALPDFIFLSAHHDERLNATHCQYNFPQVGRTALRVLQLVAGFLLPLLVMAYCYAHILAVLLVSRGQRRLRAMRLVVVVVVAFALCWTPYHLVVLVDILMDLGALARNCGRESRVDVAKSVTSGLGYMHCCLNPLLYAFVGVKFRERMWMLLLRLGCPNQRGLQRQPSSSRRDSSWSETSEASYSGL
Test: Chemotaxis assay IP10, L1.2 recombinant cells expressing hCXCR3
Type: cell-based
Conditions: L1.2 hCXCR3 cells, IP10 around 0.3 nM, 4 hours
observed.property: IC50 (µM)
Enter your answer as a number in µM; do not include the unit.

# molecule, unit.of.measure, IC50
rows = [
    ("CCOc1ccc(S(=O)(=O)N(Cc2ccc(C(=O)NC3(c4ccccc4)CC3)cc2)Cc2cccnc2)cc1", "µM", 0.04),
    ("COc1ccc(S(=O)(=O)NC(=O)c2ccc(CN(Cc3ccccn3)S(=O)(=O)c3ccc(Cl)cc3)cc2)cc1", "µM", 3.87),
    ("N#Cc1ccc(S(=O)(=O)N(Cc2ccc(C(=O)NC3(c4ccccc4)CC3)cc2)Cc2ccccn2)cc1", "µM", 0.013),
    ("N#Cc1ccc(S(=O)(=O)N(Cc2ccc(NC(=O)C3(c4ccccc4)CC3)cc2)Cc2ccccn2)cc1", "µM", 0.02),
    ("O=C(NCC1CC1)c1ccc(CN(Cc2ccccc2F)S(=O)(=O)c2ccc(Cl)cc2)cc1", "µM", 0.51),
    ("CCOc1ccc(S(=O)(=O)N(Cc2ccc(C(=O)NC3(c4ccccc4)CC3)cc2)Cc2ccccn2)cc1", "µM", 0.01),
    ("CCOc1ccc(S(=O)(=O)N(Cc2ccc(C(=O)NCC(O)c3ccccc3)cc2)Cc2ccccn2)cc1 (stereo not drawn)", "µM", 0.01),
    ("O=C(Cc1cccc(Cl)c1)Nc1ccc(CN(Cc2ccccn2)S(=O)(=O)c2ccc(Cl)cc2)cc1", "µM", 0.12),
    ("N#Cc1ccc(S(=O)(=O)N(Cc2ccc(-c3nnn[nH]3)cc2)Cc2ccccc2F)cc1", "µM", 0.236),
    ("O=S(=O)(c1ccc(Cl)cc1)N(Cc1ccc(Cl)cc1)Cc1ccc(-c2nnn[nH]2)cc1", "µM", 0.882),
]

Any idea what its IC50 is? The molecule is O=S(=O)(c1ccc(Cl)cc1)N(Cc1ccc(-c2nnn[nH]2)c(F)c1)Cc1ccccn1 1.16

Entry COc1ccc(S(=O)(=O)N(Cc2ccc(C(=O)NCc3cccc(Cl)c3)cc2)Cc2cccnc2)cc1 please 1.15
